I'd be grateful if you could share measured viability, T/C for these entries.
- System: 695427-040-R-J1-PDC complex spheroid viability
- Procedure Summary: Anticancer human tumor 695427-040-R-J1-PDC patient-derived colon adenocarcinoma cell line growth inhibition [POLQ]
- Conditions: second compound 0.316 µM; first compound 0.1 µM; stronger effect = lower value
Answers are plain numbers, in %.

Record excerpt, results attached:
Compound	Metric Name	Numeric Result
C=CCn1c(=O)c2cnc(Nc3ccc(N4CCN(C)CC4)cc3)nc2n1-c1cccc(C(C)(C)O)n1 + Cc1cccc(N(C)C(=O)C2C(O)CCN2c2nc(C)cc(C(F)(F)F)c2C#N)c1	viability, T/C	92.5
CNCc1ccc(-c2[nH]c3cc(F)cc4c3c2CCNC4=O)cc1 + Nc1ccc(C#CCN(C(=O)Cc2ncc(C(F)(F)F)cc2C(F)(F)F)c2ccc(F)cc2)nn1	viability, T/C	102

Field: viability, T/C. Fill in for each record below.
1. O=C(c1cc(Cc2n[nH]c(=O)c3ccccc23)ccc1F)N1CCN(C(=O)C2CC2)CC1 + Cc1cccc(N(C)C(=O)C2C(O)CCN2c2nc(C)cc(C(F)(F)F)c2C#N)c1
2. CC[C@@]1(O)C(=O)OCc2c1cc1n(c2=O)Cc2cc3c(CN(C)C)c(O)ccc3nc2-1 + Nc1ccc(C#CCN(C(=O)Cc2ncc(C(F)(F)F)cc2C(F)(F)F)c2ccc(F)cc2)nn1
3. COc1cc(C2c3cc4c(cc3C(OC3OC5COC(C)OC5C(O)C3O)C3COC(=O)C23)OCO4)cc(OC)c1O (stereo not given) + COC1C(OC(N)=O)C(O)C(Oc2ccc3c(O)c(NC(=O)c4ccc(O)c(CC=C(C)C)c4)c(=O)oc3c2C)OC1(C)C

result:
[101, 101, 92.3]

----------
- Test system: 695427-040-R-J1-PDC complex spheroid viability
- Procedure Summary: Anticancer human tumor 695427-040-R-J1-PDC cell line growth inhibition [POLQ];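 also: spheroids exposed to compounds for seven days; 100% = DMSO vehicle control viability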
- Conditions: second compound 3.16 µM; first compound 0.000316 µM; stronger effect = lower value
Metric Name: viability, T/C (%)
One number for each entry, in %.

Compound	Unit Name	viability, T/C
Cn1ncnc1[C@H]1c2n[nH]c(=O)c3cc(F)cc(c23)N[C@@H]1c1ccc(F)cc1 + COC1C(OC(N)=O)C(O)C(Oc2ccc3c(O)c(NC(=O)c4ccc(O)c(CC=C(C)C)c4)c(=O)oc3c2C)OC1(C)C	%	96.6

For every record below, what is its viability, T/C?
1. CC[C@@]1(O)C(=O)OCc2c1cc1n(c2=O)Cc2cc3c(CN(C)C)c(O)ccc3nc2-1 + Cc1cccc(N(C)C(=O)C2C(O)CCN2c2nc(C)cc(C(F)(F)F)c2C#N)c1
2. Cn1ncnc1[C@H]1c2n[nH]c(=O)c3cc(F)cc(c23)N[C@@H]1c1ccc(F)cc1 + Nc1ccc(C#CCN(C(=O)Cc2ncc(C(F)(F)F)cc2C(F)(F)F)c2ccc(F)cc2)nn1
3. Cn1ncnc1[C@H]1c2n[nH]c(=O)c3cc(F)cc(c23)N[C@@H]1c1ccc(F)cc1 + Cc1cccc(N(C)C(=O)C2C(O)CCN2c2nc(C)cc(C(F)(F)F)c2C#N)c1
4. CC[C@@]1(O)C(=O)OCc2c1cc1n(c2=O)Cc2cc3c(CN(C)C)c(O)ccc3nc2-1 + COC1C(OC(N)=O)C(O)C(Oc2ccc3c(O)c(NC(=O)c4ccc(O)c(CC=C(C)C)c4)c(=O)oc3c2C)OC1(C)C
5. CC[C@@]1(O)C(=O)OCc2c1cc1n(c2=O)Cc2cc3c(CN(C)C)c(O)ccc3nc2-1 + Nc1ccc(C#CCN(C(=O)Cc2ncc(C(F)(F)F)cc2C(F)(F)F)c2ccc(F)cc2)nn1

result:
[92.4, 105, 88.9, 97.2, 107]

----------
- Test system: 695427-040-R-J1-PDC complex spheroid viability
- Procedure Summary: Anticancer human tumor 695427-040-R-J1-PDC cell line growth inhibition [POLQ];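 also: spheroids exposed to compounds for seven days; 100% = DMSO vehicle control viability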
- Conditions: second compound 0.316 µM; first compound 0.0316 µM; stronger effect = lower value
Record form. Attribute: viability, T/C. Fill in for each entry.
Numbers only, in %.

Examples from the recorded data:
Compound	Test System	Unit Name	viability, T/C
C#Cc1c(F)ccc2cc(O)cc(-c3ncc4c(N5CC6CCC(C5)N6)nc(OCC56CCCN5CC(F)C6)nc4c3F)c12 (stereo not given) + Nc1ccc(C#CCN(C(=O)Cc2ncc(C(F)(F)F)cc2C(F)(F)F)c2ccc(F)cc2)nn1	695427-040-R-J1-PDC complex spheroid viability	%	109
C=CCn1c(=O)c2cnc(Nc3ccc(N4CCN(C)CC4)cc3)nc2n1-c1cccc(C(C)(C)O)n1 + Cc1cccc(N(C)C(=O)C2C(O)CCN2c2nc(C)cc(C(F)(F)F)c2C#N)c1	695427-040-R-J1-PDC complex spheroid viability	%	95.5
CCc1cc2c(N3CCc4c(cc(Cn5ccnc5)cc4-c4cn(C)nc4C(F)(F)F)C3=O)ccnc2c(OC)n1 + Nc1ccc(C#CCN(C(=O)Cc2ncc(C(F)(F)F)cc2C(F)(F)F)c2ccc(F)cc2)nn1	695427-040-R-J1-PDC complex spheroid viability	%	118
CCc1cc2c(N3CCc4c(cc(Cn5ccnc5)cc4-c4cn(C)nc4C(F)(F)F)C3=O)cc(C)nc2c(OC)n1 + COC1C(OC(N)=O)C(O)C(Oc2ccc3c(O)c(NC(=O)c4ccc(O)c(CC=C(C)C)c4)c(=O)oc3c2C)OC1(C)C	695427-040-R-J1-PDC complex spheroid viability	%	107

Continue with the compound presented below.
query: Returns the measured viability, T/C for the input compound. Input: CCc1c2c(nc3ccc(O)cc13)-c1cc3c(c(=O)n1C2)COC(=O)[C@]3(O)CC + Nc1ccc(C#CCN(C(=O)Cc2ncc(C(F)(F)F)cc2C(F)(F)F)c2ccc(F)cc2)nn1
result: 85.3

----------
- System: 695427-040-R-J1-PDC complex spheroid viability
- Procedure Summary: Anticancer human tumor 695427-040-R-J1-PDC cell line growth inhibition [POLQ];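 also: spheroids exposed to compounds for seven days; 100% = DMSO vehicle control viability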
- Conditions: second compound 0.316 µM; first compound 3.16 µM; stronger effect = lower value
Metric Name: viability, T/C (%)
One number for each entry, in %.

Compound	Test System	Numeric Result
COc1cc2cc(C(=O)CCC(=O)O)sc2cc1OC + COC1C(OC(N)=O)C(O)C(Oc2ccc3c(O)c(NC(=O)c4ccc(O)c(CC=C(C)C)c4)c(=O)oc3c2C)OC1(C)C	695427-040-R-J1-PDC complex spheroid viability	101

For every item in the list below, what is its measured viability, T/C?
1. O=C(Nc1ccc(O)c(NS(=O)(=O)c2ccc(F)cc2)c1)c1ccc(-c2ccccc2)cc1 + Nc1ccc(C#CCN(C(=O)Cc2ncc(C(F)(F)F)cc2C(F)(F)F)c2ccc(F)cc2)nn1
2. COc1cc(C2c3cc4c(cc3C(OC3OC5COC(C)OC5C(O)C3O)C3COC(=O)C23)OCO4)cc(OC)c1O (stereo not given) + Nc1ccc(C#CCN(C(=O)Cc2ncc(C(F)(F)F)cc2C(F)(F)F)c2ccc(F)cc2)nn1
3. CC1COCCN1c1cc(C2(S(C)(=N)=O)CC2)nc(-c2ccnc3[nH]ccc23)n1 (stereo not given) + COC1C(OC(N)=O)C(O)C(Oc2ccc3c(O)c(NC(=O)c4ccc(O)c(CC=C(C)C)c4)c(=O)oc3c2C)OC1(C)C
4. O=C(Nc1ccc(O)c(NS(=O)(=O)c2ccc(F)cc2)c1)c1ccc(-c2ccccc2)cc1 + COC1C(OC(N)=O)C(O)C(Oc2ccc3c(O)c(NC(=O)c4ccc(O)c(CC=C(C)C)c4)c(=O)oc3c2C)OC1(C)C
5. CCc1cc2c(N3CCc4c(cc(Cn5ccnc5)cc4-c4cn(C)nc4C(F)(F)F)C3=O)cc(C)nc2c(OC)n1 + Nc1ccc(C#CCN(C(=O)Cc2ncc(C(F)(F)F)cc2C(F)(F)F)c2ccc(F)cc2)nn1
6. CC1COCCN1c1cc(C2(O)CC3CCC(C2)O3)c2cnn(-c3ccn[nH]3)c2n1 (stereo not given) + COC1C(OC(N)=O)C(O)C(Oc2ccc3c(O)c(NC(=O)c4ccc(O)c(CC=C(C)C)c4)c(=O)oc3c2C)OC1(C)C
7. CC(C)n1c(=O)n(C)c2cnc3cc(F)c(-c4ccc(OCCCN5CCCCC5)nc4)cc3c21 + Nc1ccc(C#CCN(C(=O)Cc2ncc(C(F)(F)F)cc2C(F)(F)F)c2ccc(F)cc2)nn1
8. C#Cc1c(F)ccc2cc(O)cc(-c3ncc4c(N5CC6CCC(C5)N6)nc(OCC56CCCN5CC(F)C6)nc4c3F)c12 (stereo not given) + Nc1ccc(C#CCN(C(=O)Cc2ncc(C(F)(F)F)cc2C(F)(F)F)c2ccc(F)cc2)nn1

result:
1. 108
2. 113
3. 101
4. 104
5. 113
6. 54.3
7. 106
8. 99.4

Parameters: items (list). Returns: viability, T/C for each item.
1. C=CC(=O)N1CCN(c2nc(=O)n(-c3c(C)ccnc3C(C)C)c3nc(-c4c(O)cccc4F)c(F)cc23)C(C)C1 (stereo not given) + Cc1cccc(N(C)C(=O)C2C(O)CCN2c2nc(C)cc(C(F)(F)F)c2C#N)c1
2. CC1COCCN1c1cc(C2(S(C)(=N)=O)CC2)nc(-c2ccnc3[nH]ccc23)n1 (stereo not given) + Cc1cccc(N(C)C(=O)C2C(O)CCN2c2nc(C)cc(C(F)(F)F)c2C#N)c1

result:
1: 101; 2: 91.7

// input: 3 compounds below; output: viability, T/C for each
1. COc1ccc([C@@H](O)c2cc(-c3ncnc4cc(N5CCOCC5)ccc34)c(F)cc2Cl)nn1 + COC1C(OC(N)=O)C(O)C(Oc2ccc3c(O)c(NC(=O)c4ccc(O)c(CC=C(C)C)c4)c(=O)oc3c2C)OC1(C)C
2. CC1COCCN1c1cc(-c2ccnn2C)c2ccnc(-c3ccn[nH]3)c2n1 (stereo not given) + Cc1cccc(N(C)C(=O)C2C(O)CCN2c2nc(C)cc(C(F)(F)F)c2C#N)c1
3. COc1ccc([C@@H](O)c2cc(-c3ncnc4cc(N5CCOCC5)ccc34)c(F)cc2Cl)nn1 + Nc1ccc(C#CCN(C(=O)Cc2ncc(C(F)(F)F)cc2C(F)(F)F)c2ccc(F)cc2)nn1

result:
1. 76.8
2. 49.5
3. 89.9

For every item in the list below, what is its measured viability, T/C?
1. CCc1cc2c(N3CCc4c(cc(Cn5ccnc5)cc4-c4cn(C)nc4C(F)(F)F)C3=O)ccnc2c(OC)n1 + Nc1ccc(C#CCN(C(=O)Cc2ncc(C(F)(F)F)cc2C(F)(F)F)c2ccc(F)cc2)nn1
2. COc1cccc2c1C(=O)c1c(O)c3c(c(O)c1C2=O)CC(O)(C(=O)CO)CC3OC1CC(N)C(O)C(C)O1 (stereo not given) + Nc1ccc(C#CCN(C(=O)Cc2ncc(C(F)(F)F)cc2C(F)(F)F)c2ccc(F)cc2)nn1
3. CCc1cc2c(N3CCc4c(cc(Cn5ccnc5)cc4-c4cn(C)nc4C(F)(F)F)C3=O)cc(C)nc2c(OC)n1 + COC1C(OC(N)=O)C(O)C(Oc2ccc3c(O)c(NC(=O)c4ccc(O)c(CC=C(C)C)c4)c(=O)oc3c2C)OC1(C)C
4. CCc1cc2c(N3CCc4c(cc(Cn5ccnc5)cc4-c4cn(C)nc4C(F)(F)F)C3=O)ccnc2c(OC)n1 + COC1C(OC(N)=O)C(O)C(Oc2ccc3c(O)c(NC(=O)c4ccc(O)c(CC=C(C)C)c4)c(=O)oc3c2C)OC1(C)C
5. CC1COCCN1c1cc(C2(O)CC3CCC(C2)O3)c2cnn(-c3ccn[nH]3)c2n1 (stereo not given) + Cc1cccc(N(C)C(=O)C2C(O)CCN2c2nc(C)cc(C(F)(F)F)c2C#N)c1
6. COc1cc(C2c3cc4c(cc3C(OC3OC5COC(C)OC5C(O)C3O)C3COC(=O)C23)OCO4)cc(OC)c1O (stereo not given) + Cc1cccc(N(C)C(=O)C2C(O)CCN2c2nc(C)cc(C(F)(F)F)c2C#N)c1

result:
[103, 81.5, 110, 109, 58.4, 93.2]
